tested on: MCF7 breast; assay: NCI-60 one-dose screen, 48 h (100 = growth as untreated, 0 = no growth, -100 = all killed); settings: 10 µM
This is part of a sample that, as a whole, favours compounds with a hit. Of some 83,000 tested, about 20% had one in any assay.
Experimental readout: growth (%)
Lab book: enter the figure in %, no units written.

Solved entries:
* COc1cc2c(cc1OC)N(CCO)C1=C(C(=O)OC1)C2c1ccc(Cl)c(Cl)c1 (stereo not drawn) | 95.8
* CC/C(=N\N=C(/CC)c1ccc(Br)cc1)c1ccc(Br)cc1 | 90.9
* FC(F)(F)c1ccc(-c2cnc(-n3cc(COCCN4CCCCC4)nn3)nc2NC2CCCCCC2)cc1 | -1.43
* CC(=O)O[C@]1(C)CC[C@H]2[C@H](CNCCc3ccc(Cl)cc3)C(=O)O[C@@H]2C2=C(C)C(=O)C[C@H]21 | 68.4

Measured on MCF7 breast, "O=c1c2ccccc2nc(SCCN2CCCCC2)n1CCc1ccccc1" has a documented growth of 63.3

Measured on MCF7 breast, "CCN(CC)CCOc1nc2ccc(OC)cc2c2c1-c1ccc(OC)cc1C2=O" has a documented growth of -58.6

Measured on MCF7 breast, "CN(C)CCN=c1nc2c(c(N)n1-c1ccccc1)c(=S)n(-c1ccccc1)c(=S)n2-c1ccccc1" has a documented growth of 17.9

Measured on MCF7 breast, CC(C)=NNc1ncnc2c1ncn2C1OC(CO)C(O)C1O (stereo not drawn) has a documented growth of 12.2

Measured on MCF7 breast, "COc1ccc(-c2nn(-c3cccc(NC(=O)c4cc(C(F)(F)F)cc(C(F)(F)F)c4)c3)cc2-c2ccncc2)cc1Cl" has a documented growth of 54.2

Measured on MCF7 breast, CC1CC(=O)OC(C)C1 (stereo not drawn) has a documented growth of 91.1

Measured on MCF7 breast, "Cn1c([N+](=O)[O-])cnc1/C=C1\Oc2ccccc2C1=O" has a documented growth of 1.82

Measured on MCF7 breast, CCN1CCC2(CC1)OC(c1ccccc1)C(c1ccccc1)O2 (stereo not drawn) has a documented growth of 99.6

Measured on MCF7 breast, "CC(C)N(CCNc1nc(C(Cl)(Cl)Cl)nc2cc(Cl)ccc12)C(C)C" has a documented growth of -85.6
